# Target Desc: rat Adrenergic Receptor, Alpha 2 (Adra2), Non-selective Binding, Adra2a (gene 25083)
# Protocol Description: NVS_GPCR_rAdra2_NonSelective: NovaScreen (NVS) G Protein-Coupled Receptor Assay for rat Adrenergic Receptor, Alpha 2 (Adra2), Non-selective Binding (AID 2283299)
Results filed as inconclusive are left out. Activity calls are given as the source filed them. Rule for the calls: active = hit-call score of the fitted dose curve at least 0.9, where 1 is the maximum; inconclusive = response in the unintended direction; inactive = score below 0.9.
Give AC50 for every item shown.

Worked cases, answers included:
>  <Smiles Data>
Cc1oc(-c2ccccc2)nc1CCOc1ccc(C[C@H](Nc2ccccc2C(=O)c2ccccc2)C(=O)O)cc1

>  <AC50>
35.6 µM (active)

$$$$
>  <Smiles Data>
Nc1cccc2c(N)cccc12

>  <AC50>
16.8 µM (active)

$$$$

Please look at the following compound next.
For reference, reported AC50 for "CCCOc1sc(C(=O)N2CCC(c3cc(CN)ccc3F)CC2)c(C)c1Br" stands at 23.2 µM (active)

###

# Protocol Description: CCTE_Shafer_MEA_acute_burst_duration_mean: CCTE's Neural Acute Assay for Mean Burst Duration, Shafer Lab (AID 2284014);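 note: hits are decreases in mean burst duration relative to DMSO controls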
# Experimental: CCTE_Shafer_MEA_acute assay is conducted using Axion Biosystems 48 well microelectrode array (MEA) plates and Maestro recording system. Each well of the MEA plate contains a grid of 16 microelectrodes embedded in the culture surface. Electrically active cells, such as neurons, can be cultured over the electrodes, and electrical activity in these cells can be recorded extracellularly. […]
Active and inactive are the calls of the source. Rule for the calls: active = hit-call score of the fitted dose curve at least 0.9, where 1 is the maximum; inactive = score below 0.9.
Quantity Measured: outcome

>  <Compound>
CCc1ccc(CCOc2ccc(CC3SC(=O)NC3=O)cc2)nc1 (stereo not drawn)

>  <Quantity Measured>
outcome

>  <Reported>
inactive

$$$$
>  <Compound>
O=c1c(-c2ccc(O)cc2)coc2cc(O)ccc12

>  <Quantity Measured>
outcome

>  <Reported>
inactive

$$$$
>  <Compound>
Oc1cc2ccccc2c2ccccc12

>  <Quantity Measured>
outcome

>  <Reported>
inactive

$$$$

###

# Read-out: Broad substrate specificity ATP-binding cassette transporter ABCG2 (Homo sapiens) (UniProt Q9UNQ0)
# Sequence (Q9UNQ0 whole entry, looked up): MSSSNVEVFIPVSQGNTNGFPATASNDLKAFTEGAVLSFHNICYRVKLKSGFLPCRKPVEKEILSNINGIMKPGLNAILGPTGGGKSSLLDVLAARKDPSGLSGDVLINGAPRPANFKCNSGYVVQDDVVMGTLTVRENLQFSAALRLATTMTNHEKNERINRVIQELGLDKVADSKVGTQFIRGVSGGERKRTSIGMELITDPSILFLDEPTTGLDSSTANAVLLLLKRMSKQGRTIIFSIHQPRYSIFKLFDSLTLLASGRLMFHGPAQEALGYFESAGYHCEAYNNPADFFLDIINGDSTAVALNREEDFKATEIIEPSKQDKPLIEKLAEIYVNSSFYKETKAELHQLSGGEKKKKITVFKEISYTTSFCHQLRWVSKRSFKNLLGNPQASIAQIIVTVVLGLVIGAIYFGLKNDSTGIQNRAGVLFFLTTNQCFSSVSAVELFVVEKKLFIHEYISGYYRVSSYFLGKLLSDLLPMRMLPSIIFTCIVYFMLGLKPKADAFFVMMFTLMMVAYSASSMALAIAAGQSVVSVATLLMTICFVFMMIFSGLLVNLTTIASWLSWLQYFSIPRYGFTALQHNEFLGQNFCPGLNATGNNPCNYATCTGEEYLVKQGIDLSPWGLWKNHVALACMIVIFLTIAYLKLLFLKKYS
# Protocol Description: LTEA_HepaRG_ABCG2: Life Technologies and Expression Analysis (LTEA) Assay for ABC Transporter (ABCG2) using HepaRG (AID 2283465)
# Run Conditions: mRNA level, 48 h; actives raise or lower the signal
The source made the active and inactive calls. Rule for the calls: active = hit-call score of the fitted dose curve at least 0.9, where 1 is the maximum; inactive = score below 0.9.
Quantity Measured: outcome

>  <Compound>
COc1ccc([N+](=O)[O-])cc1N

>  <Quantity Measured>
outcome

>  <Reported>
inactive

$$$$
>  <Compound>
O=[N+]([O-])c1ccc(O)cc1

>  <Quantity Measured>
outcome

>  <Reported>
inactive

$$$$
>  <Compound>
C[C@@H]1C[C@H]2[C@@H]3CCC4=CC(=O)C=C[C@]4(C)[C@@]3(F)[C@@H](O)C[C@]2(C)[C@@]1(O)C(=O)COP(=O)(O)O

>  <Quantity Measured>
outcome

>  <Reported>
inactive

$$$$
>  <Compound>
OC1CCCCC1

>  <Quantity Measured>
outcome

>  <Reported>
inactive

$$$$
>  <Compound>
N#C[C@@H]1CC(F)(F)CN1C(=O)CNC1CC2CCC(C1)N2c1ncccn1 (stereo partly drawn)

>  <Quantity Measured>
outcome

>  <Reported>
inactive

$$$$

For each of the compounds below, state outcome.
1. CCCCCCCCCCCCN1CCCC1=O
2. CC(C)(C)c1ccc(O)c(C(C)(C)C)c1

1: inactive; 2: inactive

For reference, reported outcome for "c1ccc2c(c1)Cc1ccccc1-2" stands at inactive

###

# Protocol Description: APR_HepG2_NuclearSize_24hr: Apredica 24-hour HepG2 Assay for Nuclear Size (AID 2282907)
# Run Conditions: high-content imaging, actives raise or lower the signal
Calls of active or inactive are those of the source. The calls were made as follows: active = hit-call score of the fitted dose curve at least 0.9, where 1 is the maximum; inactive = score below 0.9.
Hi! Could you answer with just one of these? t for active, f for inactive

>  <Smiles Data>
CC(C)(C)c1cc(C(C)(C)C)c(O)c(C(C)(C)C)c1

>  <Class>
f

$$$$
>  <Smiles Data>
Cc1cc(C)c(O)c(C)c1

>  <Class>
f

$$$$
>  <Smiles Data>
OCCC(F)(F)C(F)(F)C(F)(F)C(F)(F)C(F)(F)C(F)(F)C(F)(F)C(F)(F)F

>  <Class>
t

$$$$
>  <Smiles Data>
CCCCCCCC(=O)O

>  <Class>
f

$$$$
>  <Smiles Data>
C=C(C)C(=O)OCCC(F)(F)C(F)(F)C(F)(F)C(F)(F)C(F)(F)C(F)(F)F

>  <Class>
f

$$$$
>  <Smiles Data>
CC(=O)NC1(c2cccc(F)c2)CCN(CC[C@@]2(c3ccc(Cl)c(Cl)c3)CN(c3ccccc3)C(=O)CO2)CC1

>  <Class>
f

$$$$
>  <Smiles Data>
C#C[C@]1(O)CC[C@H]2[C@@H]3CCC4=CC(=O)CC[C@@H]4[C@H]3CC[C@@]21C

>  <Class>
f

$$$$
>  <Smiles Data>
C[C@@H]1C[C@H]2[C@@H]3CCC4=CC(=O)C=C[C@]4(C)[C@@]3(F)[C@@H](O)C[C@]2(C)[C@@]1(O)C(=O)COP(=O)(O)O

>  <Class>
t

$$$$
>  <Smiles Data>
O=C(O)c1ccccc1C(c1ccc(O)cc1)c1ccc(O)cc1

>  <Class>
f

$$$$

Now for another entry.
I'd appreciate the recorded outcome for "CN1CCN(c2ccccc2/C=C2\SCCN(c3ccc(Cl)c(Cl)c3)C2=O)CC1" from this test.
t

###

# Protocol Description: ATG_RORE_CIS: Attagene CIS-FACTORIAL HepG2 Assay for human RAR-related Orphan Receptor Element (RORE) (AID 2282959)
# Run Conditions: HepG2 Attagene cis-factorial RORE reporter, mRNA; actives raise or lower the signal
Active and inactive are the calls of the source. Rule for the calls: active = hit-call score of the fitted dose curve at least 0.9, where 1 is the maximum; inactive = score below 0.9.
Hi! Could you answer with just one of these? true (active), false (inactive)

I'd appreciate the recorded outcome for "CC[C@H](c1ccc(O)cc1)[C@@H](CC)c1ccc(O)cc1" from this test.
false

I'd appreciate the recorded outcome for OC1CCC(C2CCCCC2)CC1 (configuration not stated) from this test.
false

I'd appreciate the recorded outcome for "CC#C[C@]1(O)CC[C@H]2[C@@H]3CCC4=CC(=O)CCC4=C3[C@@H](c3ccc(N(C)C)cc3)C[C@@]21C" from this test.
true

###

# Read-out: Apoptosis regulator Bcl-2 (Homo sapiens)
# Protocol Description: LTEA_HepaRG_BCL2: Life Technologies and Expression Analysis (LTEA) Assay for Bcl-2 gene using HepaRG (AID 2283475);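 note: BCL2 transcript by TaqMan qRT-PCR normalised to ACTB GAPDH and POLR2A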
# Run Conditions: mRNA level, 48 h; actives raise or lower the signal
Active and inactive are the calls of the source. Rule for the calls: active = hit-call score of the fitted dose curve at least 0.9, where 1 is the maximum; inactive = score below 0.9.
Hi! Could you answer with just one of these? t = active, f = inactive

These solved cases illustrate the format of a correct answer.
>  <Compound>
N#C[C@@H]1CC(F)(F)CN1C(=O)CNC1CC2CCC(C1)N2c1ncccn1 (stereo partly specified)

>  <Class>
f

$$$$
>  <Compound>
CCCOC(=O)c1ccc(O)cc1

>  <Class>
f

$$$$
>  <Compound>
CC1=C(/C=C/C(C)=C/C=C/C(C)=C/C(=O)O)C(C)(C)CCC1

>  <Class>
f

$$$$
>  <Compound>
CN1CCN(c2ccccc2/C=C2\SCCN(c3ccc(Cl)c(Cl)c3)C2=O)CC1

>  <Class>
f

$$$$

I'd appreciate the recorded outcome for "C#C[C@]1(O)CC[C@H]2[C@@H]3CCC4=CC(=O)CC[C@@H]4[C@H]3CC[C@@]21C" from this test.
f

I'd appreciate the recorded outcome for "CCN(CC)CCNc1ccc(CNC=O)c2sc3ccc(OC)cc3c(=O)c12" from this test.
f

I'd appreciate the recorded outcome for "CC(C)(C)c1cccc(C(C)(C)C)c1O" from this test.
f

I'd appreciate the recorded outcome for "CCCCOCCO" from this test.
f

###

# Protocol Description: Tanguay_ZF_120hpf_TRUN_legacy: (Legacy) Oregon State University Tanguay Lab 120 Hour Post-fertilization zebrafish Assay for Truncated Body (AID 2283655)
Inconclusive results are not listed. The source made the active and inactive calls. The calls were made as follows: active = hit-call score of the fitted dose curve at least 0.9, where 1 is the maximum; inconclusive = response in the unintended direction; inactive = score below 0.9.
Hi! Could you answer with just one of these? active, inactive

>  <Compound>
O=C(O)c1ccccc1C(c1ccc(O)cc1)c1ccc(O)cc1

>  <Class>
inactive

$$$$
>  <Compound>
C=C(C)C(=O)OCCC(F)(F)C(F)(F)C(F)(F)C(F)(F)C(F)(F)C(F)(F)F

>  <Class>
inactive

$$$$
>  <Compound>
ClC1=C(Cl)C(Cl)(Cl)C(Cl)=C1Cl

>  <Class>
inactive

$$$$
>  <Compound>
COC(=O)CCCCC(=O)OC

>  <Class>
inactive

$$$$
>  <Compound>
CCCCCCCCCCCCN1CCCC1=O

>  <Class>
active

$$$$
>  <Compound>
OCCC(F)(F)C(F)(F)C(F)(F)C(F)(F)C(F)(F)C(F)(F)F

>  <Class>
inactive

$$$$
>  <Compound>
CCCOC(=O)c1ccc(O)cc1

>  <Class>
active

$$$$
>  <Compound>
OC1CCCCC1

>  <Class>
inactive

$$$$
>  <Compound>
O=C(OCCOCCOC(=O)c1ccccc1)c1ccccc1

>  <Class>
inactive

$$$$
>  <Compound>
Oc1cc2ccccc2c2ccccc12

>  <Class>
active

$$$$

I'd appreciate the recorded outcome for "CC(=O)NC1(c2cccc(F)c2)CCN(CC[C@@]2(c3ccc(Cl)c(Cl)c3)CN(c3ccccc3)C(=O)CO2)CC1" from this test.
inactive

I'd appreciate the recorded outcome for "CC(=O)CC(C)(C)O" from this test.
inactive

I'd appreciate the recorded outcome for "CC(C)(C)c1cc(C(C)(C)C)c(O)c(C(C)(C)C)c1" from this test.
inactive

I'd appreciate the recorded outcome for "CCOC(=O)CC(O)(CC(=O)OCC)C(=O)OCC" from this test.
inactive

I'd appreciate the recorded outcome for CCc1ccc(CCOc2ccc(CC3SC(=O)NC3=O)cc2)nc1 (stereo not given) from this test.
inactive

I'd appreciate the recorded outcome for "CC(C)(C)CC(C)(C)c1ccc(O)c(-n2nc3ccccc3n2)c1" from this test.
inactive

I'd appreciate the recorded outcome for "CCCCCCCCCCCCCCCS(=O)(=O)Oc1ccccc1" from this test.
inactive

I'd appreciate the recorded outcome for N#C[C@@H]1CC(F)(F)CN1C(=O)CNC1CC2CCC(C1)N2c1ncccn1 (stereo not given in full) from this test.
inactive

I'd appreciate the recorded outcome for "CCCCCCCC(=O)O" from this test.
inactive

I'd appreciate the recorded outcome for "CCCCCCCCCCCCc1ccccc1S(=O)(=O)O" from this test.
inactive

I'd appreciate the recorded outcome for "CC1=C(/C=C/C(C)=C/C=C/C(C)=C/C(=O)O)C(C)(C)CCC1" from this test.
active

I'd appreciate the recorded outcome for "O=C(O)Cc1cc(I)c(Oc2cc(I)c(O)c(I)c2)c(I)c1" from this test.
inactive

I'd appreciate the recorded outcome for "O=c1c(-c2ccc(O)cc2)coc2cc(O)ccc12" from this test.
inactive

I'd appreciate the recorded outcome for COCC(C)O (stereo not given) from this test.
inactive

I'd appreciate the recorded outcome for "Cc1oc(-c2ccccc2)nc1CCOc1ccc(C[C@H](Nc2ccccc2C(=O)c2ccccc2)C(=O)O)cc1" from this test.
inactive
